Target: T1, human TIGIT protein (human, UniProt Q495A1 22-141, limits assumed)
T1 construct: Recombinant protein (Genentech) used in ELISA screening and as SPR analyte; also called TIGIT antigen
T1 sequence: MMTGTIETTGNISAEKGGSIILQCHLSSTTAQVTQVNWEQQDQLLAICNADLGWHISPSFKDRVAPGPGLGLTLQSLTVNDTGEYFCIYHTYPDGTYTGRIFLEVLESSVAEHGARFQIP
Experiment: SPR, captured mAb
This section presents binders with their documented Kd values.
All answers are understood in nM, so give the number only.

Would you please look over these solved cases?
binder	Kd [nM]
h7E7.L5H1 (antibody, V domains shown, VL: I58V, Y71F, F87Y against h7E7.L1H1; FR/HVR pieces) VH: EVQLVQSGAEVKKPGASVKVSCKASGYTFTEYSIYWVRQAPGQRLEIIGRIDPKNGRTYYVDKFKNRATLTADTSASTAYMELSSLRSEDTAVYFCTRIYGFYFDFWGQGTLVTVSS VL: DIQLTQSPSFLSASVGDRVTITCKGSQNVNKYLVWYQQKPGKAPKLLIYNTDNLQSGVPSRFSGSGSGTEFTLTISSLQPEDFATYYCYQYNNGFTFGQGTKVEIK	0.32
h15C8.L3H1 (antibody, V domains shown, VL: Y71F against h15C8.L1H1; FR/HVR pieces) VH: EVQLVQSGAEVKKPGASVKVSCKASGYTFTEHSIYWLRQAPGQRLEIIGRIDPKNGRTYFVDKFKNRATLTTDTSASTAYMELSSLRSEDTAVYFCARIDGFYFDFWGQGTLVTVSS VL: DIQLTQSPSFLSASVGDRVTITCKGSQNVNKYLVWYQQKPGKAPKLLIYSTDNLQSGIPSRFSGSGSGTEFTLTISSLQPEDFATYFCYQYNNGFTFGQGTKVEIK	0.84

Look up and state reported Kd for h7E7.L4H1 (antibody, V domains shown, VL: F87Y against h7E7.L1H1; FR/HVR pieces) VH: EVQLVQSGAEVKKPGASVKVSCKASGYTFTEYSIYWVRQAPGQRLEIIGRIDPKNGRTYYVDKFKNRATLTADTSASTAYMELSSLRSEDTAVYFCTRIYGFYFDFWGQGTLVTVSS VL: DIQLTQSPSFLSASVGDRVTITCKGSQNVNKYLVWYQQKPGKAPKLLIYNTDNLQSGIPSRFSGSGSGTEYTLTISSLQPEDFATYYCYQYNNGFTFGQGTKVEIK
0.27
